Origin of measurements: patent US10155764B2

# targetEntity: PCAF719-832 bromodomain (Homo sapiens (Human))
# experimentalDetails: PCAF AlphaLisa binding assay
# conditionDescription: PCAF bromodomain 225 nM, biotinylated small molecule ligand 6 nM
pIC50: −log10 of the molar value.
Classification field: enter True for pIC50 values not below 6, False for values below it.

# bool: pIC50 of CN(C)[C@H]1CCCC[C@@H]1Nc1nn(C)c(=O)c2cccnc12 (single isomer, unassigned) [Example 11B] >= 6 False

# bool: pIC50 of CN(C)C(CNc1nn(C)c(=O)c2ccccc12)c1ccccc1 (racemic) [Example 22] >= 6 True

# bool: pIC50 of CCC(CNc1nn(C)c(=O)c2ccccc12)N(C)C (racemic) [Example 39] >= 6 True

# bool: pIC50 of CCN(CC)CCNc1nn(C)c(=O)c2ccccc12 [Example 23] >= 6 False

# bool: pIC50 of CN1CCCC1CNc1nn(C)c(=O)c2ccccc12 (racemic) [Example 30] >= 6 False

# bool: pIC50 of COc1ccc([C@@H]([C@H](C)Nc2nn(C)c(=O)c3ccccc23)N(C)C)cc1 (single isomer, unassigned) [Example 79] >= 6 True

# bool: pIC50 of CN(C)C(CNc1nn(C)c(=O)c2ccccc12)c1ccc(Cl)cc1 (racemic) [Example 27] >= 6 True

# bool: pIC50 of CN1CCN(CCNc2nn(C)c(=O)c3ccccc23)CC1 [Example 42] >= 6 False

---

# targetEntity: PCAF719-832 bromodomain (Homo sapiens (Human))
# experimentalDetails: PCAF AlphaLisa binding assay
# conditionDescription: PCAF bromodomain 225 nM, biotinylated small molecule ligand 6 nM
Rule: measured IC50 below 200 nM gets Criterion met; anything equal to or greater than 200 nM gets Criterion not met.

Is the reported IC50 for `CN(C)CCNc1nn(C)c(=O)c2ccccc12` strictly below 200 nM? Criterion met

Is the reported IC50 for Cn1nc(N[C@H]2CCCC[C@H]2N)c2ncccc2c1=O (single isomer, unassigned) [Example 14B] strictly below 200 nM? Criterion not met

Is the reported IC50 for CN(C)[C@@H]1c2ccccc2C[C@@H]1Nc1nn(C)c(=O)c2cccnc12 [Example 46A] strictly below 200 nM? Criterion not met

Is the reported IC50 for Cn1nc(N[C@@H]2CCCC[C@H]2N)c2ccccc2c1=O (racemic) strictly below 200 nM? Criterion not met

Is the reported IC50 for `CC(C)OC(=O)c1ccc([C@@H]([C@H](C)Nc2nn(C)c(=O)c3cccnc23)N(C)C)cc1` strictly below 200 nM? Criterion met

Is the reported IC50 for CN(C)C(CNc1nn(C)c(=O)c2ccccc12)c1ccc(F)cc1 (racemic) strictly below 200 nM? Criterion met

Is the reported IC50 for `Cn1nc(NCCN2CCCC2)c2ccccc2c1=O` strictly below 200 nM? Criterion not met

Is the reported IC50 for `COC(=O)c1ccc([C@@H]([C@H](C)Nc2nn(C)c(=O)c3cccnc23)N(C)C)cc1` strictly below 200 nM? Criterion met

Is the reported IC50 for CC(CN(C)C)Nc1nn(C)c(=O)c2cnccc12 (racemic) strictly below 200 nM? Criterion met

Is the reported IC50 for `CN(C)[C@@H](CNc1nn(C)c(=O)c2cccnc12)c1ccccc1` strictly below 200 nM? Criterion not met

Is the reported IC50 for C[C@H](Nc1nn(C)c(=O)c2ccccc12)[C@H](c1ccc(Oc2ccccn2)cc1)N(C)C (single isomer, unassigned) strictly below 200 nM? Criterion met

Is the reported IC50 for `CN(C)CCSc1nn(C)c(=O)c2ccccc12` strictly below 200 nM? Criterion not met

Is the reported IC50 for C[C@H](Nc1nn(C)c(=O)c2ccccc12)[C@H](c1ccc(OCC2CC2)cc1)N(C)C (single isomer, unassigned) strictly below 200 nM? Criterion met

Is the reported IC50 for `CC(C)NCCNc1nn(C)c(=O)c2ccccc12` strictly below 200 nM? Criterion not met

Is the reported IC50 for C[C@@H](CN(C)C)Nc1nn(C)c(=O)c2cccnc12 (single isomer, unassigned) strictly below 200 nM? Criterion met

Is the reported IC50 for `CN(C)[C@H](CNc1nn(C)c(=O)c2cccnc12)c1ccccc1` strictly below 200 nM? Criterion met

Is the reported IC50 for CC(CN(C)C)Nc1nn(C)c(=O)c2c1CN(c1ccc(Cl)cc1)CC2 (racemic) strictly below 200 nM? Criterion not met

Is the reported IC50 for `CN(C)CCNc1nn(C)c(=O)c2cccc(F)c12` strictly below 200 nM? Criterion met

Is the reported IC50 for `COc1ccc2c(=O)n(C)nc(NCCN(C)C)c2c1` strictly below 200 nM? Criterion not met

Is the reported IC50 for Cc1cccc2c(=O)n(C)nc(N[C@@H](C)[C@H](c3ccccc3)N(C)C)c12 (single isomer, unassigned) [Example 70A] strictly below 200 nM? Criterion met

Is the reported IC50 for C/C=C/Cn1nc(NC(C)CN(C)C)c2ccccc2c1=O (racemic) strictly below 200 nM? Criterion not met

Is the reported IC50 for `COc1ccc2c(NCCN(C)C)nn(C)c(=O)c2c1` strictly below 200 nM? Criterion not met

Is the reported IC50 for `Cn1nc(NCCN2CCC2)c2ccccc2c1=O` strictly below 200 nM? Criterion not met

Is the reported IC50 for CN(C)[C@@H]1CCCC[C@H]1Nc1nn(C)c(=O)c2cccnc12 (single isomer, unassigned) [Example 11A] strictly below 200 nM? Criterion met

Is the reported IC50 for C[C@@H](Nc1nn(C)c(=O)c2[nH]ccc12)[C@@H](c1ccccc1)N(C)C (single isomer, unassigned) [Example 71B] strictly below 200 nM? Criterion met

Is the reported IC50 for CN(C)C(CNc1nn(C)c(=O)c2cccnc12)c1ccccc1 (stereo not drawn) strictly below 200 nM? Criterion met

Is the reported IC50 for CN(C)[C@H]1c2ccccc2C[C@H]1Nc1nn(C)c(=O)c2ccccc12 [Example 47B] strictly below 200 nM? Criterion not met

Is the reported IC50 for C[C@H](Nc1nn(C)c(=O)c2cccnc12)[C@H](c1ccc(S(=O)(=O)c2ccccc2)cc1)N(C)C (single isomer, unassigned) [Example 74A] strictly below 200 nM? Criterion met

Is the reported IC50 for CN(C)[C@@H]1c2ccccc2C[C@@H]1Nc1nn(C)c(=O)c2ccccc12 [Example 47A] strictly below 200 nM? Criterion not met

Is the reported IC50 for CCn1nc(N[C@@H](C)CN(C)C)c2ccccc2c1=O (single isomer, unassigned) [Example 17B] strictly below 200 nM? Criterion not met

Is the reported IC50 for CN(C)[C@H]1c2ccccc2C[C@H]1Nc1nn(C)c(=O)c2cccnc12 [Example 46B] strictly below 200 nM? Criterion not met

Is the reported IC50 for Cc1cccc2c(N[C@H](C)[C@@H](c3ccccc3)N(C)C)nn(C)c(=O)c12 (single isomer, unassigned) [Example 69B] strictly below 200 nM? Criterion met

Is the reported IC50 for C[C@H](Nc1nn(C)c(=O)c2cccnc12)[C@H](c1ccc(Oc2ccccc2)cc1)N(C)C (single isomer, unassigned) strictly below 200 nM? Criterion not met

---

# targetEntity: PCAF719-832 bromodomain (Homo sapiens (Human), UniProt Q92831)
# Sequence (Q92831 719-832): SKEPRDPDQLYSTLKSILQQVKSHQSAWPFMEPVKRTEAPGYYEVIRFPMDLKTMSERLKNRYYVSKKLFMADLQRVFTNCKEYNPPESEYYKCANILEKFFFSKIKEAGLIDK
# experimentalDetails: PCAF AlphaLisa binding assay
# conditionDescription: PCAF bromodomain 225 nM, biotinylated small molecule ligand 6 nM
Counter-ions that a name gives are not always drawn.
For each record, write down the corresponding IC50.
Reply with the number and its unit after it.

Supply measured IC50 of CC(CN(C)C)Nc1nn(C)c(=O)c2c1CCN(c1ccc(Cl)cc1)C2 (racemic) in your reply. 1.2 µM

Supply measured IC50 of `Cn1nc(NCCN2CCCCC2)c2ccccc2c1=O` in your reply. 2.2 µM

Supply measured IC50 of CN(C)C(CNc1nn(C)c(=O)c2ccccc12)c1ccccc1Cl (racemic) in your reply. 0.11 µM

Supply measured IC50 of C[C@H](Nc1nn(C)c(=O)c2ccccc12)[C@H](c1cccnc1)N(C)C (single isomer, unassigned) in your reply. 0.086 µM

Supply measured IC50 of CN(C)[C@H]1CCCC[C@H]1Nc1nn(C)c(=O)c2cccnc12 (single isomer, unassigned) [Example 15A] in your reply. 0.078 µM

Supply measured IC50 of C[C@H](Nc1nn(C)c(=O)c2ccccc12)[C@H](c1ccccn1)N(C)C (single isomer, unassigned) in your reply. 0.021 µM

Supply measured IC50 of CN(C)[C@@H](CNc1nn(C)c(=O)c2ccccc12)c1ccccc1 (single isomer, unassigned) [Example 22B] in your reply. 0.55 µM

Supply measured IC50 of C[C@H](Nc1nn(C)c(=O)c2cccnc12)[C@H](c1ccc(C(=O)OCc2ccccc2)cc1)N(C)C [Example 87, hydrochloride] in your reply. 0.029 µM

Supply measured IC50 of CC(C)Oc1ccc([C@@H]([C@H](C)Nc2nn(C)c(=O)c3ccccc23)N(C)C)cc1 (single isomer, unassigned) in your reply. 0.033 µM

Supply measured IC50 of C[C@H](Nc1nn(C)c(=O)c2ccccc12)[C@H](c1ccc(OCc2ccccc2)cc1)N(C)C (stereo in doubt) in your reply. 0.036 µM

Supply measured IC50 of CN1CCCC(Nc2nn(C)c(=O)c3ccccc23)C1 (racemic) in your reply. 0.79 µM
